Tested on: Bacillus subtilis
test description: Antibacterial activity against Bacillus subtilis MTCC 2063 after 24 hr by tube dilution method
Type: functional
measured quantity: -logMIC
Answer field: number only, no words.

Would you mind telling me what -logMIC value was observed for Cc1c(/N=C/c2cccc(Cl)c2)c(=O)n(-c2ccccc2)n1C ?
1.72

Same question, COc1cc(/C=N/c2c(C)n(C)n(-c3ccccc3)c2=O)cc(OC)c1OC this time
1.48

Another compound to check: Cc1c(/N=C/c2cccc(O)c2)c(=O)n(-c2ccccc2)n1C
1.39

And the next one, COc1ccccc1/C=N/c1c(C)n(C)n(-c2ccccc2)c1=O ?
1.41

// same read-out, input: Cc1c(/N=C/c2ccccc2Cl)c(=O)n(-c2ccccc2)n1C
1.42

Moving on to the next compound: Cc1c(/N=C/c2ccc(Cl)cc2)c(=O)n(-c2ccccc2)n1C
1.12

Could you do the same for CCOc1cc(/C=N/c2c(C)n(C)n(-c3ccccc3)c2=O)ccc1O , please?
1.15

Please give the result for COc1ccc(/C=N/c2c(C)n(C)n(-c3ccccc3)c2=O)cc1 too.
1.11

Repeat for the following compound: CCn1cc(C(=O)O)c(=O)c2cc(F)c(N3CCNCC3)cc21
2.61

What do you get for Cc1c(/N=C/c2ccccc2)c(=O)n(-c2ccccc2)n1C ?
1.07

// same read-out, input: COc1ccc(/C=N/c2c(C)n(C)n(-c3ccccc3)c2=O)cc1OC
1.15

----------
I'd appreciate it if you could supply MFC values for the items below.
System: Candida albicans
test description: Fungicidal activity against Candida albicans MTCC 227
Type: functional

For COc1ccc(/C=N/c2c(C)n(C)n(-c3ccccc3)c2=O)cc1 , what is its reported MFC?
>0.16 uM/ml

// next record Cc1c(/N=C/c2cccc(Cl)c2)c(=O)n(-c2ccccc2)n1C
>0.15 uM/ml

Would you kindly repeat that for COc1cccc(/C=N/c2c(C)n(C)n(-c3ccccc3)c2=O)c1O ?
>0.15 uM/ml

Another molecule to check: Cc1c(/N=C/c2cccc(O)c2)c(=O)n(-c2ccccc2)n1C
>0.16 uM/ml

Now the same for Cc1c(/N=C/c2ccccc2Cl)c(=O)n(-c2ccccc2)n1C
>0.15 uM/ml

Another molecule to look at: COc1cccc(/C=N/c2c(C)n(C)n(-c3ccccc3)c2=O)c1
>0.16 uM/ml

----------
For each of the compounds below, state its MBC.
Tested on: Escherichia coli
test description: Bactericidal activity against Escherichia coli MTCC 1652
Format: functional

Query (compound): Cc1c(/N=C/c2ccc(O)cc2)c(=O)n(-c2ccccc2)n1C ; field requested: MBC
>0.16 uM/ml

Entry to check: CCOc1cc(/C=N/c2c(C)n(C)n(-c3ccccc3)c2=O)ccc1O
>0.14 uM/ml

What do you get for COc1cccc(/C=N/c2c(C)n(C)n(-c3ccccc3)c2=O)c1 ?
>0.16 uM/ml

Can you check COc1ccc(/C=N/c2c(C)n(C)n(-c3ccccc3)c2=O)cc1 next?
>0.16 uM/ml

Param item: Cc1c(/N=C/c2ccccc2)c(=O)n(-c2ccccc2)n1C
>0.17 uM/ml

Follow-up entry: CCn1cc(C(=O)O)c(=O)c2cc(F)c(N3CCNCC3)cc21 [NORFLOXACIN]
0.019 uM/ml

Another compound: Cc1c(/N=C/c2cccc(O)c2)c(=O)n(-c2ccccc2)n1C
>0.16 uM/ml

And the next one, Cc1c(/N=C/c2cccc([N+](=O)[O-])c2)c(=O)n(-c2ccccc2)n1C ?
>0.15 uM/ml

Next: Cc1c(/N=C/c2ccc(Cl)cc2Cl)c(=O)n(-c2ccccc2)n1C
>0.14 uM/ml

What would you report for COc1ccccc1/C=N/c1c(C)n(C)n(-c2ccccc2)c1=O ?
>0.16 uM/ml

Here is the next compound: COc1ccc(/C=N/c2c(C)n(C)n(-c3ccccc3)c2=O)cc1OC
>0.14 uM/ml

How about COc1cc(/C=N/c2c(C)n(C)n(-c3ccccc3)c2=O)cc(OC)c1OC ?
>0.13 uM/ml

Entry to check: Cc1c(/N=C/c2ccccc2Cl)c(=O)n(-c2ccccc2)n1C
>0.15 uM/ml

What about COc1cccc(/C=N/c2c(C)n(C)n(-c3ccccc3)c2=O)c1O ?
>0.15 uM/ml

Moving on to Cc1c(/N=C/c2cccc(Cl)c2)c(=O)n(-c2ccccc2)n1C
>0.15 uM/ml

And the next one, Cc1c(/N=C/c2ccc(Cl)cc2)c(=O)n(-c2ccccc2)n1C ?
>0.15 uM/ml
